Recorded shrunken log2 fold change for the following sequences
System: Escherichia coli TOP10;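 further: peptides expressed intracellularly from a pBAD plasmid library in pooled LB shake-flask culture, induced with 0.3% L-arabinose, DNA abundance read by NGS, three biological replicates, DESeq2 with apeglm shrinkage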
test method notes: shrunken log2 fold change of peptide-encoding DNA abundance (4.5 h post-induction vs induction); higher = less antimicrobial activity (less host growth inhibition)
stated conditions: time post-induction: 4.5 h; library: site-saturation at positions 5, 18, 19, 20
property label: shrunken log2 fold change

1) RRIRFRPPRLPRPRPRPPRIPRP = 0.232
2) RRIRDRPPRLPRPRPRPMSLPRP = -0.558
3) RRIRLRPPRLPRPRPRPAWNPRP = 0.133
4) RRIRIRPPRLPRPRPRPKQKPRP = -0.12
5) RRIRCRPPRLPRPRPRPKNRPRP = -0.118
6) RRIRHRPPRLPRPRPRPNTVPRP = 0.0932
7) RRIRWRPPRLPRPRPRPAWDPRP = 1.05
8) RRIRRRPPRLPRPRPRPPLVPRP = 1.23
